Tgt: DDR1 (human) (UniProt Q08345)
Sequence (Q08345 whole entry, looked up): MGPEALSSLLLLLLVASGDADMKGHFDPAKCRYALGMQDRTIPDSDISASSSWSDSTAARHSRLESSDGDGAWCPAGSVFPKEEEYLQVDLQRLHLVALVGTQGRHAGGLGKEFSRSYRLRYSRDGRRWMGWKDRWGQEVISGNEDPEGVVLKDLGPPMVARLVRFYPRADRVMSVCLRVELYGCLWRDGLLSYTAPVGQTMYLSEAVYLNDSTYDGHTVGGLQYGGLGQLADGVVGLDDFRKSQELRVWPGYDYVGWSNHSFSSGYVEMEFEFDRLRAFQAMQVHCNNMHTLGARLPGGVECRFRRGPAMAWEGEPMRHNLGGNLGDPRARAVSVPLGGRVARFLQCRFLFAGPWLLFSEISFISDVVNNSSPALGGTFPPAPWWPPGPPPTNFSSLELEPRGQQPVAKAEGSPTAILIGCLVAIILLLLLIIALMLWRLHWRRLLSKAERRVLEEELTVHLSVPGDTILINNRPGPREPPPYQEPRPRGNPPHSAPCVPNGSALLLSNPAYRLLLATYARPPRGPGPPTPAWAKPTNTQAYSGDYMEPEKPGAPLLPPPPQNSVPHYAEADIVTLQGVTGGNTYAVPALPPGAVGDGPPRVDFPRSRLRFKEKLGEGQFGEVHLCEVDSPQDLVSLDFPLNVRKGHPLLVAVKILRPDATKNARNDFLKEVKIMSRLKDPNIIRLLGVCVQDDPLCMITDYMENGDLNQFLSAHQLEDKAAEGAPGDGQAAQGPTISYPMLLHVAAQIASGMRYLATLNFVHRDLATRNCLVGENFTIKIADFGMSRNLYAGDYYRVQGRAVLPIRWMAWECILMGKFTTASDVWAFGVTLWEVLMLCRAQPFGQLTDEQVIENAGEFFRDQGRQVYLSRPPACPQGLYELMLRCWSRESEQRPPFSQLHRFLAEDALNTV
Procedure Details: KINOMEscan competition binding
Reported Conditions: compound 10.0 µM

[
  {
    "Chemical String": "N#Cc1cc(-c2ccnc(Nc3ccc(-n4cnc(-c5cccnc5)n4)cc3)n2)cc(N2CCOCC2)c1",
    "kinase still bound, per cent of control, %": 100
  },
  {
    "Chemical String": "CCCS(=O)(=O)Nc1ccc(F)c(C(=O)c2c[nH]c3ncc(Cl)cc23)c1F",
    "kinase still bound, per cent of control, %": 1.6
  },
  {
    "Chemical String": "CCOc1cc(N2CCC(O)CC2)ccc1Nc1ncc2c(n1)N(C)c1ccccc1C(=O)N2C",
    "kinase still bound, per cent of control, %": 100
  },
  {
    "Chemical String": "CCN(CCO)CCCOc1ccc2c(Nc3cc(CC(=O)Nc4cccc(F)c4)[nH]n3)ncnc2c1",
    "kinase still bound, per cent of control, %": 12
  },
  {
    "Chemical String": "COc1cc(N2CCC(C(N)=O)CC2)ccc1Nc1nc(N)c(Cl)c(Nc2ccccc2S(=O)(=O)C(C)C)n1",
    "kinase still bound, per cent of control, %": 100
  },
  {
    "Chemical String": "CC(=O)c1c(C)c2cnc(Nc3ccc(N4CCNCC4)cn3)nc2n(C2CCCC2)c1=O",
    "kinase still bound, per cent of control, %": 60
  },
  {
    "Chemical String": "COc1cc2c(Nc3ccc(NC(=O)c4ccccc4)cc3)ncnc2cc1OCCCN1CCOCC1",
    "kinase still bound, per cent of control, %": 36
  },
  {
    "Chemical String": "Cc1cn(-c2cc(C(=O)Nc3ccc(C)c(NC(=O)c4ccno4)c3)cc(C(F)(F)F)c2)cn1",
    "kinase still bound, per cent of control, %": 0.1
  },
  {
    "Chemical String": "COc1ccc(N(C(=O)Oc2cc(C(=O)Nc3cccc(C(F)(F)F)c3)ccc2C)c2ccnc(Nc3ccc(N4CCN(C)CC4)cc3)n2)c(OC)c1",
    "kinase still bound, per cent of control, %": 0.55
  }
]
